Kindly supply the reported TGI values for the records listed here.
System: OVCAR-3 ovarian
experiment: NCI tumour cell line growth inhibition, 48 h

Here's what some known entries look like.
O=C(CN1CCCCC1)Nc1ccc2sc3ccccc3c(=O)c2n1 :: > 100 µM
CCc1cc(C(=O)OC)cn1C(=N)c1ccc(Cl)cc1 :: > 100 µM
CN(C)Nc1cc(=O)[nH]c(=O)[nH]1 :: > 100 µM
C(=C\c1cccs1)/c1cccc(/C=C/c2cccs2)n1 :: > 100 µM

Give TGI for all compounds that follow.
1. O=C1Nc2ccccc2/C1=C/C(=O)c1coc2c1C(=O)c1ccccc1C2=O
2. COCCOC(=O)c1c(C)n([O-])c2cc(Cl)c(Cl)cc2[n+]1=O

Result:
1. > 100 µM
2. 34.5 µM
